The reported numbers originate from ChEMBL document CHEMBL2151025.

pKi: −log10 of the molar value.
These molecules were tested on Coagulation factor X (Homo sapiens, UniProt P00742); pKi is the recorded read-out.
Sequence (P00742 41-179 limits assumed): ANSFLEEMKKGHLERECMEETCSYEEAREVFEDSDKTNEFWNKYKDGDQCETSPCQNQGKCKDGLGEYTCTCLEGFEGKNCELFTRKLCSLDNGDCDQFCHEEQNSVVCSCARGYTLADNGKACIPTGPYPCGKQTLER
Sequence (P00742 235-488 limits assumed): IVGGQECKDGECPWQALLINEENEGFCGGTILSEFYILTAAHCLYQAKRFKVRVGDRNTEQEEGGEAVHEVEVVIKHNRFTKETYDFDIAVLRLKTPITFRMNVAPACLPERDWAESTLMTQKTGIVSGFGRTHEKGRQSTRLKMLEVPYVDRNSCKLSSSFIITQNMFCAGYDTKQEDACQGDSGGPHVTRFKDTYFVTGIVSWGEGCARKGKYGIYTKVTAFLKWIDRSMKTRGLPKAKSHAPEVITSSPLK
observation.type: pKi

[[record]]
molecule = "CCNCC(=O)N=S(C)(=O)c1ccc(C(=O)Nc2ccc(Cl)cc2C(=O)Nc2ccc(Cl)cn2)cc1 (configuration not stated)"
observed_value = 8.82

[[record]]
molecule = "CCN(CC)CC(=O)N=S(C)(=O)c1ccc(C(=O)Nc2ccc(Cl)cc2C(=O)Nc2ccc(Cl)cn2)cc1 (configuration not stated)"
observed_value = 8.96


----------
Tested on: Plasma
observation.type: 2PT

[[record]]
molecule = "CCNCC(=O)N=S(C)(=O)c1ccc(C(=O)Nc2c(OC)cc(Cl)cc2C(=O)Nc2ccc(Cl)cn2)cc1 (centres undefined)"
observation_type = "2PT"
observed_value = "0.74 µM"

[[record]]
molecule = "CS(=O)(=NC(=O)CN1CCCC1)c1ccc(C(=O)Nc2ccc(Cl)cc2C(=O)Nc2ccc(Cl)cn2)cc1 (centres undefined)"
observation_type = "2PT"
observed_value = "0.46 µM"

[[record]]
molecule = "CCN(CC)CC(=O)N=S(C)(=O)c1ccc(C(=O)Nc2ccc(OC)cc2C(=O)Nc2ccc(Cl)cn2)cc1 (centres undefined)"
observation_type = "2PT"
observed_value = "1.44 µM"

[[record]]
molecule = "CNCC(=O)N=S(C)(=O)c1ccc(C(=O)Nc2ccc(Cl)cc2C(=O)Nc2ccc(Cl)cn2)cc1 (centres undefined)"
observation_type = "2PT"
observed_value = "0.77 µM"

